# recordedConditions: 0.1N HCl, 1.0% DMSO, 24-hour incubation at ambient temperature, maximum theoretical 100 μM; first value of the cell
propertyMeasured: pH 2 solubility (μM)

CC(C)(C#Cc1ccc(-c2ccc(Cl)c3c(N(C(=O)OC(CC(=O)O)CC(=O)O)S(C)(=O)=O)nn(CC(F)(F)F)c23)c([C@H](Cc2cc(F)cc(F)c2)NC(=O)Cn2nc(C(F)(F)F)c3c2C(F)(F)[C@@H]2C[C@H]32)n1)S(C)(=O)=O :: 14
CC(C)(C#Cc1ccc(-c2ccc(Cl)c3c(N(C(=O)N[C@@H](CC(=O)O)C(=O)O)S(C)(=O)=O)nn(CC(F)(F)F)c23)c([C@H](Cc2cc(F)cc(F)c2)NC(=O)Cn2nc(C(F)(F)F)c3c2C(F)(F)[C@@H]2C[C@H]32)n1)S(C)(=O)=O :: 1
CC(C)(C#Cc1ccc(-c2ccc(Cl)c3c(N(C(=O)OCCOCCOP(=O)(O)O)S(C)(=O)=O)nn(CC(F)(F)F)c23)c([C@H](Cc2cc(F)cc(F)c2)NC(=O)Cn2nc(C(F)(F)F)c3c2C(F)(F)[C@@H]2C[C@H]32)n1)S(C)(=O)=O :: 4
CC(C)(C#Cc1ccc(-c2ccc(Cl)c3c(N(C(=O)OCCCCCOP(=O)(O)O)S(C)(=O)=O)nn(CC(F)(F)F)c23)c([C@H](Cc2cc(F)cc(F)c2)NC(=O)Cn2nc(C(F)(F)F)c3c2C(F)(F)[C@@H]2C[C@H]32)n1)S(C)(=O)=O :: 1
CC(C)(C#Cc1ccc(-c2ccc(Cl)c3c(N(COP(=O)(O)O)S(C)(=O)=O)nn(CC(F)(F)F)c23)c([C@H](Cc2cc(F)cc(F)c2)NC(=O)Cn2nc(C(F)(F)F)c3c2C(F)(F)[C@@H]2C[C@H]32)n1)S(C)(=O)=O :: 6
CC(C)(C#Cc1ccc(-c2ccc(Cl)c3c(N(C(=O)N(CCCC(=O)O)CCNC(=O)OCOP(=O)(O)O)S(C)(=O)=O)nn(CC(F)(F)F)c23)c([C@H](Cc2cc(F)cc(F)c2)NC(=O)Cn2nc(C(F)(F)F)c3c2C(F)(F)[C@@H]2C[C@H]32)n1)S(C)(=O)=O :: 2
CC(C)(C#Cc1ccc(-c2ccc(Cl)c3c(N(C(=O)N[C@H](CC(=O)O)C(=O)O)S(C)(=O)=O)nn(CC(F)(F)F)c23)c([C@H](Cc2cc(F)cc(F)c2)NC(=O)Cn2nc(C(F)(F)F)c3c2C(F)(F)[C@@H]2C[C@H]32)n1)S(C)(=O)=O :: 1
CC(C)(CO)NC(=O)N(c1nn(CC(F)(F)F)c2c(-c3ccc(C#CC(C)(C)S(C)(=O)=O)nc3[C@H](Cc3cc(F)cc(F)c3)NC(=O)Cn3nc(C(F)(F)F)c4c3C(F)(F)[C@@H]3C[C@H]43)ccc(Cl)c12)S(C)(=O)=O :: 1
CC(C)(C#Cc1ccc(-c2ccc(Cl)c3c(N(COC(=O)CCP(=O)(O)O)S(C)(=O)=O)nn(CC(F)(F)F)c23)c([C@H](Cc2cc(F)cc(F)c2)NC(=O)Cn2nc(C(F)(F)F)c3c2C(F)(F)[C@@H]2C[C@H]32)n1)S(C)(=O)=O :: 86

[I] CC(C)(C#Cc1ccc(-c2ccc(Cl)c3c(N(C(=O)N[C@@H](COC(=O)C(=O)O)C(=O)O)S(C)(=O)=O)nn(CC(F)(F)F)c23)c([C@H](Cc2cc(F)cc(F)c2)NC(=O)Cn2nc(C(F)(F)F)c3c2C(F)(F)[C@@H]2C[C@H]32)n1)S(C)(=O)=O
[II] CC(C)(C#Cc1ccc(-c2ccc(Cl)c3c(N(C(=O)OCC(=O)O)S(C)(=O)=O)nn(CC(F)(F)F)c23)c([C@H](Cc2cc(F)cc(F)c2)NC(=O)Cn2nc(C(F)(F)F)c3c2C(F)(F)[C@@H]2C[C@H]32)n1)S(C)(=O)=O
IN: Which of the two items, I and II , has the greater recorded pH 2 solubility? Answer by stating the label of the chosen item.
OUT: II
(II: 9 μM, I: 1 μM)

These entries and their values trace back to patent US12404262B2.
